This section presents compounds with their documented pIC50 values.
- tgt: Solute carrier family 22 member 12 (Homo sapiens, UniProt Q96S37)
- Sequence (Q96S37 whole entry): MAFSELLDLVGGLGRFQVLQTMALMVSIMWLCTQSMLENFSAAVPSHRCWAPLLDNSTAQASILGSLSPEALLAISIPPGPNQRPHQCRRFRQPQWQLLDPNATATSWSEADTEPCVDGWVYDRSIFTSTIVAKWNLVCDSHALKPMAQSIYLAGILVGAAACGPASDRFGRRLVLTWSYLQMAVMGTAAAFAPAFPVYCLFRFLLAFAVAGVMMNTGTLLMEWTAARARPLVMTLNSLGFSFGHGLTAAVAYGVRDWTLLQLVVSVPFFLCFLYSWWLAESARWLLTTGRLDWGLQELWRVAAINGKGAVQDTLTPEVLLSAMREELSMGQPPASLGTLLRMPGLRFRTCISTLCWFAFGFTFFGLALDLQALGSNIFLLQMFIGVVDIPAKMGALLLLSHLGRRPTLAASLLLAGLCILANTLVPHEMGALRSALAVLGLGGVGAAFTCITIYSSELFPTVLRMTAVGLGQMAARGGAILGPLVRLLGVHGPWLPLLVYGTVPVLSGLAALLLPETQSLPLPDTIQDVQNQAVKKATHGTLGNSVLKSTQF
- assay method text: Inhibition Assay: It was introduced human URAT1 full-length cDNA into an expression vector pcDNA5 / FRT / V5-His TOPO (registered trademark) (Invitrogen). The resulting expression plasmids, the liposome method using Lipofectamine LTX (Invitrogen), Chinese hamster ovary cells (hereinafter, referred to as CHO cells) was introduced into, by culturing in a selective medium containing hygromycin and human URAT1 stable The expression cell line we were prepared.Human URAT1 expression CHO cells, 10% fetal calf serum, D-MEM / F-12 containing the hygromycin (1: 1) using a mixed medium, 37 C, were cultured in the presence of 5% CO2. Cells were seeded in 96-well plates (Corning Incorporated) in 0.8x10E+5 cells / well, were subjected to the following uric acid transport inhibition test after 24 hours.After removal of the medium by aspiration, sodium gluconate of cells 125mM, potassium gluconate of 4.8mM, potassium dihydrogen phosphate of 1.2mM, magnesium sulfate of 1.2mM, calcium gluconate of 1.3mM, 5. washed once.
pIC50: −log10 of the molar value.
reported endpoint: pIC50

INSERT INTO assay_data (compound, reported_endpoint, measured_value) VALUES
  ('Cc1nn(Cc2c(Cl)cccc2Cl)c2cc(C(C)C(=O)O)ccc12 (configuration not stated)', 'pIC50', 7.12),
  ('Cc1nn(Cc2c(Cl)cccc2Cl)c2cc(C(C)(C)C(=O)O)ccc12', 'pIC50', 7.01);
